B1: RTP4 (parent)
chain: AFGWFRCSSCQRSWASAQVQILCH

- Variants of: B1
- assay protocol: protein stability index of a GFP-peptide fusion (GPS, HEK-293T) (PSI 1-6); higher = more stable;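 further: lentivirally expressed fusions sorted by FACS into six bins by GFP to DsRed ratio, PSI derived from sequencing read proportions per bin multiplied by bin number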
- reported conditions: c terminus: a fixed tail appended
quantity kind: protein stability index

{"primary sequence": "TFGWFRCSSCQRSWASAQVQILCH", "reading": 2.12}
{"primary sequence": "AFGWFRCSSCQRWWASAQVQILCH", "reading": 3.02}
{"primary sequence": "AFGWFRCSSCQRSWASAQVQIRCH", "reading": 1.61}
{"primary sequence": "AFGWFRCSSCQRSWARAQVQILCH", "reading": 2.79}
{"primary sequence": "AFGWFRCSTCQRSWASAQVQILCH", "reading": 4.83}
{"primary sequence": "AFGWFRCSSCQRSWAGAQVQILCH", "reading": 1.75}
{"primary sequence": "AFGWFRCSSCQTSWASAQVQILCH", "reading": 3.84}
{"primary sequence": "AFGWFRCSSCQRSWASAQDQILCH", "reading": 1.52}
{"primary sequence": "AFGWFRCSSCQRSNASAQVQILCH", "reading": 2.96}
{"primary sequence": "AFGWFRCSSCQLSWASAQVQILCH", "reading": 1.65}
{"primary sequence": "AFGWFRCSSCQRSCASAQVQILCH", "reading": 3.08}
